Where do these numbers come from? They come from patent US5358946A.

Target: ACAT (Mus musculus, UniProt Q61263)
Construct: endogenous in cells
Sequence (Q61263 1-540): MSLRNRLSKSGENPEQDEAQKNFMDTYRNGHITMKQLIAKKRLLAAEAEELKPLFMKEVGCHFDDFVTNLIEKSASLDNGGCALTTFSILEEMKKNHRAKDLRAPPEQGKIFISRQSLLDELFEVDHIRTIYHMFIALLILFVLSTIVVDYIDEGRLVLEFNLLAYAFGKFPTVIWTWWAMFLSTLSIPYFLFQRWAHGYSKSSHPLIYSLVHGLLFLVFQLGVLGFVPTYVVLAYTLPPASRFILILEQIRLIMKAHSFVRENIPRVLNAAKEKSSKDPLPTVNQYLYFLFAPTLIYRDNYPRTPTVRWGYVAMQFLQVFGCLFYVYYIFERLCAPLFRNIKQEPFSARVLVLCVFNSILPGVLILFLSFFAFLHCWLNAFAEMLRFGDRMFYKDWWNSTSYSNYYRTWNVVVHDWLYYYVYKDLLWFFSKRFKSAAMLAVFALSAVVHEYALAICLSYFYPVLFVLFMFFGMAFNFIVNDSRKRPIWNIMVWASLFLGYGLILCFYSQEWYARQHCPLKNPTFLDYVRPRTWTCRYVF
Test: Inhibition of cholesterol esterification in the murine macrophage-like cell line J774.A1
Conditions: J774.A1 cells, ac-LDL loaded, 14C-oleic acid pulse
property: IC50 (nM)

| compound | reported.value |
| --- | --- |
| O=C(Nc1ccc(F)cc1F)N(CCCCCSc1nc(-c2ccccc2)c(-c2ccccc2)[nH]1)CCN1CCOCC1 [Example 161] | 880 |
| CCCCCCCN(CCN(C)CCSc1nc(-c2ccccc2)c(-c2ccccc2)[nH]1)C(=O)Nc1ccc(F)cc1F [Example 101] | 1470 |
| CCCCCCCN(CCNC(=O)CSc1nc(-c2ccc(OC)cc2)c(-c2ccc(OC)cc2)[nH]1)C(=O)Nc1ccc(F)cc1F [Example 432] | 800 |
| COc1ccc(-c2nc(SCCCCCN(CCOCCO)C(=O)Nc3ccc(F)cc3F)[nH]c2-c2ccc(OC)cc2)cc1 [Example 283] | 840 |
| CCCCCCCN(CCOCCSc1nc(-c2ccccc2)c(-c2ccccc2)[nH]1)C(=O)NC(C)C [Example 362] | 990 |
